Protocol notes: Population pharmacokinetic model of plasma disulfiram and four metabolites
Assay context: final PK model; estimate (RSE %)
Measurement kind: V (volume of distribution)

>>> df
                                   compound   value_observed
0  CCN(CC)C(=S)S [M1, N,N-diethyldithiocarbamate]  0.0906 (16.6) L

Provide V (volume of distribution) for all items below, preserving their order.
1. CCN(CC)C(=O)[S+](C)[O-] (centres unmarked)
2. CCN(CC)C(=S)SC [M2, diethyldithiocarbamate-methyl ester]
3. CCN(CC)C(=S)SSC(=S)N(CC)CC
4. CCN(CC)C(=O)SC[C@H](NC(=O)CC[C@H](N)C(=O)O)C(=O)NCC(=O)O

1. 0.0647 (15.6) L
2. 0.00404 (8.0) L
3. 1.29 (9.1) L
4. 0.581 (10.3) L

====

Protocol notes: Population pharmacokinetic model of plasma disulfiram and four metabolites
Assay context: human, plasma, oral, V (volume of distribution), final PK model; estimate (RSE %)
Measurement kind: Vd (L)
Give bare numbers, in L.

Tell us which Vd value is on record for CCN(CC)C(=S)SSC(=S)N(CC)CC
1.3
